- Study target: human CB2 receptors (Homo sapiens, UniProt P34972)
- Construct: expressed in transfected cells
- Sequence (P34972 whole entry): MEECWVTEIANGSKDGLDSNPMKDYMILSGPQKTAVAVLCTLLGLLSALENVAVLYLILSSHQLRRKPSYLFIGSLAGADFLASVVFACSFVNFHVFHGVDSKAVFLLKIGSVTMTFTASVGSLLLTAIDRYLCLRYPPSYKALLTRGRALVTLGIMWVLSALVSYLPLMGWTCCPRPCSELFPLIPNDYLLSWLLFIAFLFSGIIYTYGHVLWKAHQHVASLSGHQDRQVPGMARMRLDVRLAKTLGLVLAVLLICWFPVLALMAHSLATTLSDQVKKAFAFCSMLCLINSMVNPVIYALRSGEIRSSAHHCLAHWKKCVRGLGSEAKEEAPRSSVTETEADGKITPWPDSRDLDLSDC
- Measurement protocol: CB2 radioligand binding assay ([3H]CP-55,940 competition)
Recorded endpoint: Ki (nM)
State just the number; it will be interpreted in nM.

Entry under test: CCCCn1cc(C(C)(C)C)s/c1=N\C(=O)c1cc(Cl)ccc1OC [compound A] . Its Ki was 1.8

---

- Study target: human CB1 (Homo sapiens)
- Construct: purchased Perkin Elmer; host or cells: HEK293 membranes
- Sequence (P21554 whole entry): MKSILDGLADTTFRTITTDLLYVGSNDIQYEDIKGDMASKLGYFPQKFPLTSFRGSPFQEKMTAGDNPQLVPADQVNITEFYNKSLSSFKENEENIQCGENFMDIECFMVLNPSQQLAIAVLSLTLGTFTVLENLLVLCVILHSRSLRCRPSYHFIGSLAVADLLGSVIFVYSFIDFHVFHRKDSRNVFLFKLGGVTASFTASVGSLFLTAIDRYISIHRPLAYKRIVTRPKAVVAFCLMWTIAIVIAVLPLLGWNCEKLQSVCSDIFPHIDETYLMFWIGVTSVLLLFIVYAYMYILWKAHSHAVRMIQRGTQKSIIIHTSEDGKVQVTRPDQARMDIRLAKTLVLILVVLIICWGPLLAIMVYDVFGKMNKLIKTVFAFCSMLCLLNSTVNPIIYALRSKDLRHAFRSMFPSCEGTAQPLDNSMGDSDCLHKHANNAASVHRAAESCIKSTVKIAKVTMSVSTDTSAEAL
- Measurement protocol: CB1 radioligand binding assay ([3H]CP-55,940 competition)
- Stated conditions: HEK293 human CB1 membranes, 1 nM [3H]CP-55,940; read-out: Ki for CB1 receptors
Recorded endpoint: Ki
In your response, the unit should come after the numeric value.

Entry under test: COCCn1c(C)c(C)s/c1=N\C(=O)C1C(C)(C)C1(C)C [compound B] . Its Ki was 273 nM

---

- Study target: human CB2 receptors (Homo sapiens, UniProt P34972)
- Construct: expressed in transfected cells
- Measurement protocol: CB2 radioligand binding assay ([3H]CP-55,940 competition)
- Stated conditions: HEK293 membranes expressing human CB2, 0.5 nM [3H]CP-55,940; read-out: Ki for CB2 receptors
Recorded endpoint: pKi
Note on units: pKi is unitless, being -log10 of a concentration expressed in mol/L.

Entry under test: COCCn1c(C)c(C)s/c1=N\C(=O)C1C(C)(C)C1(C)C [compound B] . Its pKi was 9.22
